- TARGET OR TEST SYSTEM: fMet-Leu-Phe receptor (Homo sapiens)
- Sequence (P21462 whole entry): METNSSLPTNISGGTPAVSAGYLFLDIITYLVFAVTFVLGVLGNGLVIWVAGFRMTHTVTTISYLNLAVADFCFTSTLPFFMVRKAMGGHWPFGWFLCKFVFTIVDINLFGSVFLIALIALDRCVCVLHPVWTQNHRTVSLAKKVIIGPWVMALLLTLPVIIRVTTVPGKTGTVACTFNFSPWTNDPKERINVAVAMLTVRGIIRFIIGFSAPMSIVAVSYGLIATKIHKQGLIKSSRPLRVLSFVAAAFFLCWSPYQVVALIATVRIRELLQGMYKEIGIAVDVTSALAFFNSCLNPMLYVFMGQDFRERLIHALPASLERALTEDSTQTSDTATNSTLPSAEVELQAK
- PROTOCOL DETAILS: FPR ligands, dose response (AID 519)
- Type: functional
Active and inactive are the calls of the source.
Entry note: the call must match one of TRUE for active, FALSE for inactive

These recorded examples may help you get a feel for the data.
* Cc1cccc(-n2nc3c(c2NC(=O)c2ccco2)CSC3)c1C | FALSE
* CCC(C)(C(=O)NC1CCCC1)N(CC1CCCO1)C(=O)c1ccc2c(c1)OCO2 (stereo not given) | FALSE
* COc1ccccc1C1C(C(=O)c2ccccc2)=C(O)C(=O)N1CCO (stereo not given) | FALSE
* O=C(O)C1CCCCC1C(=O)Nc1ccccc1Cl (stereo not given) | FALSE

Could you now look at the following compound, please?
// outcome(item) with item = COC(=O)c1[nH]c(C)c(C(=O)C2=C(O)C(=O)N(CCCN3CCOCC3)C2c2ccccn2)c1C (stereo not given)
TRUE

###

Quick reference for IC50 among some compounds
- TARGET OR TEST SYSTEM: Aminopeptidase N (Plasmodium falciparum FcB1/Columbia, UniProt O96935)
- Sequence (O96935 whole entry): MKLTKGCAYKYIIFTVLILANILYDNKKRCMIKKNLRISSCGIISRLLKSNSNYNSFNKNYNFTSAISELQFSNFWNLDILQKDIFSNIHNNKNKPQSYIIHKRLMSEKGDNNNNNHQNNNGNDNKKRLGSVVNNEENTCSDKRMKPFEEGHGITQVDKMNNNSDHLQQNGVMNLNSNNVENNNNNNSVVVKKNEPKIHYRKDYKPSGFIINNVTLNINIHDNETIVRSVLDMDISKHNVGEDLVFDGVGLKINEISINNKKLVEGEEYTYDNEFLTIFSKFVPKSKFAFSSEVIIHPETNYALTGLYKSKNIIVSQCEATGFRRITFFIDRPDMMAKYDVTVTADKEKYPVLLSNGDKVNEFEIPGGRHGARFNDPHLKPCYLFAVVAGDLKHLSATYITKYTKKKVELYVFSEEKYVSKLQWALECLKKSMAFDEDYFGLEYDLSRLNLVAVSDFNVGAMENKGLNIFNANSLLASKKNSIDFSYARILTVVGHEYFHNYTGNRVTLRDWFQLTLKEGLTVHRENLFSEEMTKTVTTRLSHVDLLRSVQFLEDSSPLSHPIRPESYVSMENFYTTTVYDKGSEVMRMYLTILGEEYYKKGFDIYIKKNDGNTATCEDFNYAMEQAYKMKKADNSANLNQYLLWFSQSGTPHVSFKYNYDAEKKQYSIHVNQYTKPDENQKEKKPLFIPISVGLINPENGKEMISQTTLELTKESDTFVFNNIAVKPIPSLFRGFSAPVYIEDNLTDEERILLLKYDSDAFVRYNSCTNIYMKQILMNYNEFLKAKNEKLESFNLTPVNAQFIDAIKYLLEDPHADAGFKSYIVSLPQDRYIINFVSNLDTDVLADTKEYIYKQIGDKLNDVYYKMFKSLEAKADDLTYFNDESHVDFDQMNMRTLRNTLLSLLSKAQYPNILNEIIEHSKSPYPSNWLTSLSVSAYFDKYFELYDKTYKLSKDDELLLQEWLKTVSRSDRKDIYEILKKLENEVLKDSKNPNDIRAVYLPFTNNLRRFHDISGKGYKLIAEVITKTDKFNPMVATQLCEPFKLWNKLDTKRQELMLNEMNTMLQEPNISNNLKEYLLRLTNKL
- PROTOCOL DETAILS: P. falciparum M1AAP inhibitors, biochemical, fluorogenic H-Leu-NHMec substrate, 1536-well (AID 1445)
- Design: species or system Plasmodium falciparum 3D7, 3D7
Calls of active or inactive are those of the source.

Solved cases (2 shown):
- COc1ccccc1NS(=O)(=O)c1ccc(Cl)c(NC(=O)C(C)N2C(=O)c3ccccc3C2=O)c1 (stereo not given): 26.9 µM (active)
- Nc1ccc(-c2nc3ccc(N)cc3o2)cc1: 26.2 µM (active)

Record summary for `CNc1ccc(/C=C(\CCC(=O)O)c2nc3ccccc3s2)cc1[N+](=O)[O-]` : reported IC50 = 43.3 µM (active)

Reported IC50 of `CS(=O)(=O)C1=NSC2=NC(=O)/C(=C\c3ccc(-c4ccccc4)o3)C(=N)N21` : 71.1 µM (active)

Briefly, IC50 measured for `COCc1cc(C)n(CC(=O)N/N=C/c2ccc(-c3ccc(Cl)c(C(=O)O)c3)o2)c(=O)c1C#N` : 24.7 µM (active)
